assay: Pharmacokinetic studies of active parent in mice; type: in vivo; conditions: mouse; 1 mg/kg IV; N = 2–3
Quick reference: Blood Clearance (unbound clearance, CLb/fub) of the listed items.

Examples with their reported Blood Clearance (unbound clearance, CLb/fub) follow.
smiles.str | measurement
CC(C)(O)CCn1cc(Nc2nc(C3CCCCC3)cn3ncnc23)cn1 | 3280 mL/min/kg
O[C@H]1CC[C@H](n2cc(Nc3nc(C4CCCCC4)cn4ncnc34)cn2)CC1 | 2500 mL/min/kg
O=C(O)[C@H]1CC[C@H](n2cc(Nc3nc(C4CCCCC4)cn4ncnc34)cn2)CC1 | 317 mL/min/kg

Next up:
stdin: Given `OCCn1cc(Nc2nc(C3CCCCC3)cn3ncnc23)cn1` , state its recorded Blood Clearance (unbound clearance, CLb/fub).
stdout: 1700 mL/min/kg

###

Quick reference: clearance of the listed items.
assay: Pharmacokinetic studies of active parent in mice; format: in vivo; settings: male, CD1, blood; mouse; 1 mg/kg IV; N = 2–3; read-out: Blood Clearance (total clearance) (converted)
Field: numeric (mL/min/kg). Do not append units.

Examples with their reported clearance follow.
smiles.str | unit.string | clearance
OCCn1cc(Nc2nc(C3CCCCC3)cn3ncnc23)cn1 | mL/min/kg | 108
O[C@H]1CC[C@H](n2cc(Nc3nc(C4CCCCC4)cn4ncnc34)cn2)CC1 | mL/min/kg | 75
O=C(O)[C@H]1CC[C@H](n2cc(Nc3nc(C4CCCCC4)cn4ncnc34)cn2)CC1 | mL/min/kg | 16.7

Next up:
stdin: Given `CC(C)(O)CCn1cc(Nc2nc(C3CCCCC3)cn3ncnc23)cn1` , state its recorded clearance.
stdout: 80

###

Quick reference: Papp of the listed items.
test: PAMPA permeability; type: in vitro ADME
Field: numeric (×10⁻⁶ cm/s). Do not append units.

smiles.str | unit.string | Papp
O=C(O)[C@H]1CC[C@H](n2cc(Nc3nc(C4CCCCC4)cn4ncnc34)cn2)CC1 | ×10⁻⁶ cm/s | 14.6
O[C@H]1CC[C@H](n2cc(Nc3nc(C4CCCCC4)cn4ncnc34)cn2)CC1 | ×10⁻⁶ cm/s | 15.6
OCCn1cc(Nc2nc(C3CCCCC3)cn3ncnc23)cn1 | ×10⁻⁶ cm/s | 14.1

Next up:
stdin: Given `CC(C)(O)CCn1cc(Nc2nc(C3CCCCC3)cn3ncnc23)cn1` , state its recorded Papp.
stdout: 8.7

###

pIC50: −log10 of the molar value.
Quick note: these are pIC50 numbers for system: CSF1R (Homo sapiens)
Sequence (P07333 20-972): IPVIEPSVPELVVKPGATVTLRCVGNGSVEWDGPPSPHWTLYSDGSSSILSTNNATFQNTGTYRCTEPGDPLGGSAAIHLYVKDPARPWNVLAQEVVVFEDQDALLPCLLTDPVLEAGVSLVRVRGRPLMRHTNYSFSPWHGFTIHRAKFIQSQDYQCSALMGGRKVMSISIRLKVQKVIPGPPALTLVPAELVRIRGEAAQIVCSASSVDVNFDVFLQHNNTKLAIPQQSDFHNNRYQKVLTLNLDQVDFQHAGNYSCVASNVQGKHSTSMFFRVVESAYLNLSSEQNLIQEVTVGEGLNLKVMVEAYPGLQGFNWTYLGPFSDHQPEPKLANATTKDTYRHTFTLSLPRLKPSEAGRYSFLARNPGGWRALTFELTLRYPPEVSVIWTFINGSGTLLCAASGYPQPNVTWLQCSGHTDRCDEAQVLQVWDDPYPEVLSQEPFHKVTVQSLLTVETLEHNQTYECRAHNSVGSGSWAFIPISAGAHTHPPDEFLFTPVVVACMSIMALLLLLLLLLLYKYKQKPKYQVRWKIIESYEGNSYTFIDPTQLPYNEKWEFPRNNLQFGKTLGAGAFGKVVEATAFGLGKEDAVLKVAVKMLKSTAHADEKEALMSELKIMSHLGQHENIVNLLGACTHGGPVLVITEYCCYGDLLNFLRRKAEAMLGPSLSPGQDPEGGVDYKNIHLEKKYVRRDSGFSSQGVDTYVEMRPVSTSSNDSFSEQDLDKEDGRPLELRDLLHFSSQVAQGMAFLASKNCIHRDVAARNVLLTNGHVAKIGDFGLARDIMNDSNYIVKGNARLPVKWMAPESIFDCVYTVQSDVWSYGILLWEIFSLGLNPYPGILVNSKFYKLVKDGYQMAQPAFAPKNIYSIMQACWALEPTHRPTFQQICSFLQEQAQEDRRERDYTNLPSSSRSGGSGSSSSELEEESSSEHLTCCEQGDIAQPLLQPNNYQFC

stdin: Given `CC(C)(O)CCn1cc(Nc2nc(C3CCCCC3)cn3ncnc23)cn1` , state its recorded pIC50.
stdout: > 8.00

stdin: Given `O[C@H]1CC[C@H](n2cc(Nc3nc(C4CCCCC4)cn4ncnc34)cn2)CC1` , state its recorded pIC50.
stdout: > 8.00

###

test: Pharmacokinetic studies of active parent in mice; assay type: in vivo; settings: mouse; 1 mg/kg; F/Fh (compound 6) or AUCoral/AUCip
quantity.measured: FaFg (%)
Field: numeric (%). Do not append units.

Examples with their reported FaFg follow.
smiles.str | unit.string | FaFg
OCCn1cc(Nc2nc(C3CCCCC3)cn3ncnc23)cn1 | % | 18
O=C(O)[C@H]1CC[C@H](n2cc(Nc3nc(C4CCCCC4)cn4ncnc34)cn2)CC1 | % | 35
CC(C)(O)CCn1cc(Nc2nc(C3CCCCC3)cn3ncnc23)cn1 | % | 32

Next up:
stdin: Given `O[C@H]1CC[C@H](n2cc(Nc3nc(C4CCCCC4)cn4ncnc34)cn2)CC1` , state its recorded FaFg.
stdout: 43
